# TARGET_UNDER_TEST: ETB (Rattus norvegicus)
# Sequence (P21451 27-442): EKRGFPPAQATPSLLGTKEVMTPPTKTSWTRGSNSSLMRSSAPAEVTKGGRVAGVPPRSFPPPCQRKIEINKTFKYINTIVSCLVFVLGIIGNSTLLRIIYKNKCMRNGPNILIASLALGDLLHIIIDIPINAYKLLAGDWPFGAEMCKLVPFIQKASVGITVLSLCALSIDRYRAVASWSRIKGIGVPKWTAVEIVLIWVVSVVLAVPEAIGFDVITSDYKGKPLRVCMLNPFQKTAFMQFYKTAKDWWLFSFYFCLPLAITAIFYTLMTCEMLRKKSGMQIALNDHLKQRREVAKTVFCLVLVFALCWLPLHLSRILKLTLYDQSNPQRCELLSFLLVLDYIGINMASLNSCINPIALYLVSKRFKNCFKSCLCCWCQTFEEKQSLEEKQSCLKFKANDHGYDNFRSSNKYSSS
# CONDITION_CONTEXT: read-out: ERBA-B IC50; [125I]-ET-1, rat cerebellar membranes
EXPERIMENTAL_ENDPOINT: pIC50
pIC50 is a log-scale quantity: -log10 of the concentration expressed in molar.

>  <COMPOUND>
COc1ccc(C2(O)OC(=O)C(c3ccc4c(c3)OCO4)=C2Cc2ccc(Cl)cc2)cc1 (stereo not shown)

>  <EXPERIMENTAL_ENDPOINT>
pIC50

>  <OBS_VALUE>
6.14

$$$$
>  <COMPOUND>
O=C1OC(O)(c2ccc(Cl)cc2)C(Cc2ccc3ccccc3c2)=C1c1ccc2c(c1)OCO2 (racemic)

>  <EXPERIMENTAL_ENDPOINT>
pIC50

>  <OBS_VALUE>
5.15

$$$$
>  <COMPOUND>
COc1ccc(CC2=C(c3ccc4c(c3)OCO4)C(=O)OC2(O)c2ccc(OC)cc2)cc1 (stereo not shown)

>  <EXPERIMENTAL_ENDPOINT>
pIC50

>  <OBS_VALUE>
6.66

$$$$

In the following, a different compound is considered.
Problem: Would you kindly share the measured pIC50 for O=C1OC(O)(c2ccc(Cl)cc2)C(Cc2cccc(Cl)c2)=C1c1ccc2c(c1)OCO2 (stereo not shown) ?
Solution: 4.92

---

# TARGET_UNDER_TEST: ETA (Oryctolagus cuniculus, UniProt A5A8K3)
# Sequence (A5A8K3 21-427): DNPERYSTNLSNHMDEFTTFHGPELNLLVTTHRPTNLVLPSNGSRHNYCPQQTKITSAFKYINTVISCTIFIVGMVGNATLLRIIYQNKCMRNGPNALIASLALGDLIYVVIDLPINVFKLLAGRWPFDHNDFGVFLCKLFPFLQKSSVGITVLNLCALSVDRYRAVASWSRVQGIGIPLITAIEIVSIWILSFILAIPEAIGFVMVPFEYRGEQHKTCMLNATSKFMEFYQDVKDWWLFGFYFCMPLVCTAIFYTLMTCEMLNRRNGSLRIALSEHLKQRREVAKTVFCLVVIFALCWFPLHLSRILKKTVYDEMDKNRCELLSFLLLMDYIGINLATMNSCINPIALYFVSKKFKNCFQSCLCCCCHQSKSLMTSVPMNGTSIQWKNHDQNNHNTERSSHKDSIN
# CONDITION_CONTEXT: ERBA-A IC50, [125I]-ET-1, rabbit renal artery vascular smooth muscle cells
EXPERIMENTAL_ENDPOINT: pIC50
pIC50 is a log-scale quantity: -log10 of the concentration expressed in molar.

>  <MOLECULE>
O=C1OC(O)(c2ccc3c(c2)OCO3)C(Cc2ccccc2)=C1c1ccc2c(c1)OCO2 (stereo not shown) [Example 245]

>  <pIC50>
6.96

$$$$

Problem: Would you kindly share the measured pIC50 for COc1ccc(C2=C(Cc3ccccc3)C(O)(c3ccc(Cl)cc3)OC2=O)cc1OC (racemic) [Example 67] ?
Solution: 5.15

Problem: Would you kindly share the measured pIC50 for COc1ccc(C2(O)OC(=O)C(c3ccc4c(c3)OCO4)=C2Cc2ccc(OCc3ccccc3)cc2)cc1 (stereo not shown) [Example 86] ?
Solution: 6.51

Problem: Would you kindly share the measured pIC50 for COc1ccc(C(=O)/C(Cc2ccc(OC(C)C)cc2)=C(\C(=O)O)c2ccc3c(c2)OCO3)cc1 [Example 353] ?
Solution: 8.36
